system: SERCA2a (Cavia porcellus, UniProt A0A286XFU8)
Construct: from tissue; host or cells: guinea pig left ventricle, SR-enriched microsomes
Sequence (A0A286XFU8 entry or part of it): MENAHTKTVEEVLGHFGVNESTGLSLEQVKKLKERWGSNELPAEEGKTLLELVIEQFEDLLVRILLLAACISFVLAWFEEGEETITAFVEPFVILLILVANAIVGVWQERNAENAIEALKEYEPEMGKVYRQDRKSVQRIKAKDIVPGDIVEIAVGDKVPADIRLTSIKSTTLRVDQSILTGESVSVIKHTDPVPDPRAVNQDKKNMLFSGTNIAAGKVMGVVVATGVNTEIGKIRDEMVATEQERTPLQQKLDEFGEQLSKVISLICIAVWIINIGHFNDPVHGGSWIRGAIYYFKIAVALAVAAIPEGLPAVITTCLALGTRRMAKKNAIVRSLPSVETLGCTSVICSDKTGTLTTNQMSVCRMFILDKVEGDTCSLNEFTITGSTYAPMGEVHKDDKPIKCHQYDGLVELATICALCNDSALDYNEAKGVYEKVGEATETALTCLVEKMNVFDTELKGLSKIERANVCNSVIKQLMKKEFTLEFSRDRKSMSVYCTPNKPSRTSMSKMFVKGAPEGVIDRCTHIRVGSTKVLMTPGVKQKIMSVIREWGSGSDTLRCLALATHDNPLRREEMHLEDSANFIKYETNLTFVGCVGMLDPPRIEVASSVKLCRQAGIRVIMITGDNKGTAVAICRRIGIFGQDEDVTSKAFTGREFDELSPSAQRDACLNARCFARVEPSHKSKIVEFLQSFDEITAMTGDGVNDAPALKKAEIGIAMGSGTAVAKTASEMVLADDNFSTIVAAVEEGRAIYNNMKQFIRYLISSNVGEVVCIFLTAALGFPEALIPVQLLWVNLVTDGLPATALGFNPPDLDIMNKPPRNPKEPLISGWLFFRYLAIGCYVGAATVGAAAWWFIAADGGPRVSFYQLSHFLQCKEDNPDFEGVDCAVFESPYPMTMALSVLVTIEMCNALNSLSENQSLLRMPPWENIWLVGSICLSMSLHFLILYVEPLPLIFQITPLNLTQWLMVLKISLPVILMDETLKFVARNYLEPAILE
experiment summary: SERCA2a ATPase activity, Ca2+ dependency in cardiac SR microsomes from healthy guinea pigs
Assay type: biochemical, guinea pig
setup conditions: 10 and 100 nM, healthy guinea pig SR preparations
measurement name: SERCA2a–Ca2+ affinity (KdCa) modulation (words)

line_notation=C[C@]12CC[C@H](CC(=O)O)C[C@@H]1[C@H](O)C[C@@H]1[C@@H]2CC[C@]2(C)C(=O)CC[C@@H]12 result=inactive
line_notation=C[C@]12CC/C(=C\CCC(=O)O)C[C@@H]1[C@H](O)C[C@@H]1[C@@H]2CC[C@]2(C)C(=O)CC[C@@H]12 result=inactive

* * *

system: SERCA2a (Cavia porcellus, UniProt A0A286XFU8)
Construct: from tissue; host or cells: guinea pig left ventricle, SR-enriched microsomes
experiment summary: SERCA2a ATPase activity, Ca2+ dependency in cardiac SR microsomes from healthy guinea pigs
Format: biochemical, guinea pig
setup conditions: 100 nM
Method: SERCA2a ATPase activity was assessed in SR preparations from healthy guinea pig hearts. Ca^2+ dependency of ATPase activity was measured, and kinetic parameters (KdCa and Vmax) were estimated at compound concentrations of 10 and 100 nM. […] SERCA2a ATPase activity was measured as the rate of 32P-ATP release at multiple Ca2+ concentrations (100-2000 nM) in the absence and presence of tested compounds, as previously described5. […]
measurement name: SERCA2a Stimulation @100 nM (DELTA% KdCa) (%)
One number for each entry, in %.

line_notation=C[C@]12CC[C@H](CCCC(=O)O)C[C@@H]1[C@@H](O)C[C@@H]1[C@@H]2CC[C@]2(C)C(=O)CC[C@@H]12 system="SERCA2a (Cavia porcellus, UniProt A0A286XFU8)" unit_name=% numeric_result=-21
line_notation=C[C@]12CC[C@H](CCCCCC(=O)O)C[C@@H]1[C@@H](O)C[C@@H]1[C@@H]2CC[C@]2(C)C(=O)CC[C@@H]12 system="SERCA2a (Cavia porcellus, UniProt A0A286XFU8)" unit_name=% numeric_result=-20
line_notation=C[C@]12CC/C(=C\CCC(=O)O)C[C@@H]1[C@@H](O)C[C@@H]1[C@@H]2CC[C@]2(C)C(=O)CC[C@@H]12 system="SERCA2a (Cavia porcellus, UniProt A0A286XFU8)" unit_name=% numeric_result=-15
line_notation=C[C@]12CC[C@H](CCCC(=O)O)C[C@@H]1[C@H](O)C[C@@H]1[C@@H]2CC[C@]2(C)C(=O)CC[C@@H]12 system="SERCA2a (Cavia porcellus, UniProt A0A286XFU8)" unit_name=% numeric_result=-23
line_notation=CCOC(=O)C[C@H]1CC[C@@]2(C)[C@H](C1)[C@@H](O)C[C@@H]1[C@@H]2CC[C@]2(C)C(=O)CC[C@@H]12 system="SERCA2a (Cavia porcellus, UniProt A0A286XFU8)" unit_name=% numeric_result=-26

Please look at the following compound next.
Value lookup for SERCA2a Stimulation @100 nM (DELTA% KdCa); key = CCOC(=O)CCC[C@H]1CC[C@@]2(C)[C@H](C1)[C@@H](O)C[C@@H]1[C@@H]2CC[C@]2(C)C(=O)CC[C@@H]12 -23
